- Experiment notes: in vivo
- Particulars: iv, 185 mg/kg i.v., read-out: Toxicity (Mortality)
Measured endpoint: mortality

Record COc1cc(/C=C/C(=O)N2CCN(CC(O)COc3ccc([N+](=O)[O-])cc3)CC2)cc(OC)c1OC (stereo not shown) , field mortality: 10%

====

- Experiment notes: in vivo
- Particulars: iv, 377 mg/kg i.v., read-out: Toxicity (Mortality)
Measured endpoint: mortality (%)
Report only the number, with the unit % understood.

Record COc1cc(/C=C/C(=O)N2CCN(CC(O)COc3cc(OC)c(OC)c(OC)c3C(C)=O)CC2)cc(OC)c1OC (stereo not shown) , field mortality: 0

====

- Test system: anaesthetized dog
- Experiment notes: Antiangorous activity on anaesthetized dog: consumption of oxygen in the left ventricule and cardiac effort (KATZ's index)
- Assay type: in vivo
- Particulars: Canis lupus familiaris, iv, 0.15 mg/kg i.v. slow perfusion, read-out: Diminution in consumption of O2
We use 40% as the dividing line for inhibition in vivo at […]: on or above the line is rule met, below is rule not met.

Compound: COc1cc(/C=C/C(=O)N2CCN(CC(O)COc3ccc(NC(C)=O)c4c3OCO4)CC2)cc(OC)c1OC (stereo not shown) [780 346]
Label: rule met
--
Compound: CCCNC(=O)Nc1ccc(OCC(O)CN2CCN(C(=O)/C=C/c3cc(OC)c(OC)c(OC)c3)CC2)c2c1OCCO2 (stereo not shown) [770 483]
Label: rule met
--
Compound: CNC(=O)Nc1ccc(OCC(O)CN2CCN(C(=O)/C=C/c3cc(OC)c(OC)c(OC)c3)CC2)c2ccccc12 (stereo not shown) [771 031]
Label: rule not met
--
Compound: CNC(=O)Nc1ccc(OCC(O)CN2CCN(C(=O)/C=C/c3cc(OC)c(OC)c(OC)c3)CC2)c2c1OCCO2 (stereo not shown) [770 077]
Label: rule met
--
Compound: COc1cc(/C=C/C(=O)N2CCN(CC(O)COc3ccc(NC(=O)NC(C)C)c4c3OCCO4)CC2)cc(OC)c1OC (stereo not shown) [770 630]
Label: rule met

**Query** Does the reported inhibition in vivo at […] for COc1cc(/C=C/C(=O)N2CCN(CC(O)COc3ccc(NC(=O)N(C)C)c4c3OCCO4)CC2)cc(OC)c1OC (stereo not shown) [771 233] fall at or above the 40% mark?
**Result** rule not met

**Query** Does the reported inhibition in vivo at […] for CCCCNC(=O)Nc1ccc(OCC(O)CN2CCN(C(=O)/C=C/c3cc(OC)c(OC)c(OC)c3)CC2)c2c1OCCO2 (stereo not shown) [770 634] fall at or above the 40% mark?
**Result** rule met

**Query** Does the reported inhibition in vivo at […] for COc1cc(/C=C/C(=O)N2CCN(CC(O)COc3ccc(NC(=O)N4CCOCC4)c4c3OCCO4)CC2)cc(OC)c1OC (stereo not shown) [771 149] fall at or above the 40% mark?
**Result** rule not met

====

- Experiment notes: in vivo
- Particulars: iv, 169 mg/kg i.v., read-out: Toxicity (Mortality)
Measured endpoint: mortality (%)
Report only the number, with the unit % understood.

Record COc1cc(/C=C/C(=O)N2CCN(CC(O)COc3ccc(C)c4c3OCCO4)CC2)cc(OC)c1OC (stereo not shown) [760 847] , field mortality: 20
